I'd be grateful if you could share measured Krel for these entries.
# protocolDescription: Compound was evaluated for relative hydrolysis rate
# Format: ADME

QUERY: What measured Krel goes with C[C@@H](O)[C@H]1C(=O)N2C(C(=O)[O-])=C(C(C)(C)C)S(=O)(=O)[C@H]12.[K+] ?
RESULT: 720

QUERY: What measured Krel goes with C[C@@H](O)[C@H]1C(=O)N2C(C(=O)[O-])=C(C(C)(C)C)[S+]([O-])[C@H]12.[K+] (stereo not given in full) ?
RESULT: 33

QUERY: What measured Krel goes with CC(C)(C)C1=C(C(=O)[O-])N2C(=O)C[C@H]2[S+]1[O-].[K+] (stereo not given in full) ?
RESULT: 39

QUERY: What measured Krel goes with C[C@@H](O)[C@H]1C(=O)N2C(C(=O)[O-])=C(C(C)(C)C)S[C@H]12.[K+] ?
RESULT: 0.6

QUERY: What measured Krel goes with CC(C)(C)C1=C(C(=O)[O-])N2C(=O)C[C@H]2S1.[K+] ?
RESULT: 1
